tested on: SNB-75; assay: NCI tumour cell line growth inhibition, 48 h
Activity calls are given as the source filed them. No stated cut-off is given here; in the data, active = GI50 up to about 1.1 µM and inactive = higher.
measurement type: GI50

>>> recorded_result("CC[N+]1(C)CCC(O)(/C=C/c2ccc(Cl)c(Cl)c2)C(C(=O)/C=C/c2ccc(Cl)c(Cl)c2)C1 (stereo not given)")
"3.78 µM (inactive)"
>>> recorded_result("CCOC(=O)c1cc(Br)c(-c2onc(C)c2Br)n1C")
"18.1 µM (inactive)"
>>> recorded_result("Cc1cc(C)c2c(=O)n(CC(O)CN(Cc3ccccc3)CC(O)Cn3sc4nc(C)cc(C)c4c3=O)sc2n1 (stereo not given)")
"15.5 µM (inactive)"
>>> recorded_result("CCOC(=O)/C=C(\\C(=O)OCC)n1ccc(=O)n(Cc2cnnn2COCCOC(C)=O)c1=O")
"16.4 µM (inactive)"
>>> recorded_result("Cc1ccc(C2=Nc3cc(C)c(Cl)cc3S(=O)(=O)NN2)cc1")
"> 100 µM (inactive)"
>>> recorded_result("COc1ccc(C2(CC(C)C)CCNC2)cc1OC (stereo not given)")
"8.18 µM (inactive)"
>>> recorded_result("CCCCCCCCCCCCCCCCNc1nc(=O)n(C2CC(O)C(COP(=O)(O)OC3CC(n4cc(F)c(=O)[nH]c4=O)OC3CO)O2)cc1F (stereo not given)")
"4.98 µM (inactive)"
>>> recorded_result("O=C1c2ccccc2-c2ccc(/N=N/c3c(O)ccc4ccccc34)cc21")
"> 100 µM (inactive)"
>>> recorded_result("CN1CCC(OC(=O)Oc2ccccc2)(c2ccccc2)CC1")
"24.4 µM (inactive)"
>>> recorded_result("C=CCCC(=O)N1CCC(C(=O)OCC)C1=O (stereo not given)")
"> 100 µM (inactive)"

###

system: SK-MEL-5; assay: NCI tumour cell line growth inhibition, 48 h
Active and inactive are the calls of the source. Rule as the data show it: active = GI50 up to about 1.1 µM and inactive = higher.
GI50: recorded values
measurement type: GI50

>>> recorded_result("COc1ccc(C2(CC(C)C)CCNC2)cc1OC (stereo unspecified)")
"> 100 µM (inactive)"
>>> recorded_result("COC(=O)C(=O)C(C(=O)OC)C(=O)C(=O)Nc1c(C)cccc1C (stereo unspecified)")
"> 100 µM (inactive)"
>>> recorded_result("O=S1(=O)OCCOS(=O)(=O)C1(F)Cc1ccccc1")
"> 100 µM (inactive)"
>>> recorded_result("O=C1NC(=O)C(CCC(=O)c2ccc3ccccc3c2)C(=O)N1")
"> 100 µM (inactive)"
>>> recorded_result("COC(=O)C(=O)OC1(C(C)=O)CC2(c3ccccc3)OC1(c1ccccc1)c1ccccc12 (stereo unspecified)")
"15 µM (inactive)"
>>> recorded_result("CCOC(=O)CNC(=O)NC12CC3CC(CC(C3)C1)C2")
"131 µM (inactive)"
>>> recorded_result("COc1ccccc1/C=N/N=C(\\N)NO")
"2.77 µM (inactive)"
>>> recorded_result("O=[N+]([O-])c1cc(-c2nnc(C34CC5CC(CC(C5)C3)C4)o2)cc([N+](=O)[O-])c1")
"14.1 µM (inactive)"
>>> recorded_result("CC(C)(C)OC(=O)N1CC(O)O[C@H](c2ccccc2)[C@@H]1c1ccccc1 (stereo partly specified)")
"27.9 µM (inactive)"
>>> recorded_result("COc1cccc(N2C(=O)CSC2c2cccc(Oc3ccccc3)c2)c1 (stereo unspecified)")
"4.36 µM (inactive)"
>>> recorded_result("CSc1nc2c(c(N(C)C)n1)C=Nn1c(nc3ccccc31)S2")
"52.1 µM (inactive)"
>>> recorded_result("COC(=O)/C=C1\\C(=O)N(C(C)=O)c2ccccc21")
"8.73 µM (inactive)"
>>> recorded_result("CCOc1ccc(/N=N/c2ccc3cc(/C(C)=N/NC(=O)/C(C#N)=C\\c4ccc(N(CCC#N)CCC#N)cc4)c(=O)oc3c2)cc1")
"> 10 µM (inactive)"
>>> recorded_result("COc1ccc(C(=C2C(=O)N(c3ccccc3)C(=O)C2=C(C)C)c2ccc(OC)cc2)cc1")
"4.61 µM (inactive)"
>>> recorded_result("Nc1nc(N)c2c(n1)CCC(S(=O)(=O)c1ccc3ccccc3c1)C2 (stereo unspecified)")
"2.55 µM (inactive)"
>>> recorded_result("COC(=O)/C(C#N)=C(\\Nc1ccccc1)N1CCCC1")
"> 100 µM (inactive)"
>>> recorded_result("CCCCCCCCCCCCC(Br)C(=O)NCC(N)=O (stereo unspecified)")
"4.57 µM (inactive)"
>>> recorded_result("CCC1(CC)C(=O)CC[C@@]2(C)C1=CC[C@H]1[C@@H]3CC[C@H](O)[C@@]3(C)CC[C@@H]12")
"47.3 µM (inactive)"
>>> recorded_result("Cc1c2c(n(CCc3ccc(Cl)cc3)c1C)NC(c1ccccc1)C(C#N)S2(=O)=O (stereo unspecified)")
"3.95 µM (inactive)"
>>> recorded_result("Cc1ccc(S(=O)(=O)NC(=O)OC23COCN2COC3)cc1")
"> 100 µM (inactive)"
>>> recorded_result("COc1ccccc1C1Nn2c(nc3ccccc3c2=O)N1c1ccc(C)cc1 (stereo unspecified)")
"7.45 µM (inactive)"

###

test system: HCT-116; assay: NCI tumour cell line growth inhibition, 48 h
The source made the active and inactive calls. Rule as the data show it: active = GI50 up to about 1.1 µM and inactive = higher.
Classes used: yes for active, no for inactive

>>> label_class("CC1NC(/C(=C/c2ccccc2O)NC(=O)c2ccccc2)OC1=O (configuration not stated)")
"no"
>>> label_class("Cc1ccc(S(=O)(=O)NC(=O)OC23COCN2COC3)cc1")
"no"
>>> label_class("O=C1Nc2ccccc2/C1=C1/Nc2ccccc2/C1=N/OCCO")
"yes"
>>> label_class("CCOC(=O)C1(C(F)(F)F)N=C(CC)OC(N2CCOCC2)=N1 (configuration not stated)")
"no"
>>> label_class("O=C(NC(=O)c1ccccc1[N+](=O)[O-])Nc1ccc(Oc2ncc(Cl)cn2)c(C(F)(F)F)c1")
"yes"
>>> label_class("FC(F)=C(c1ccc(-c2ccc(Cl)cc2)cc1)C(F)(F)F")
"no"
>>> label_class("Cc1cc(N2CCCC2)c([N+](=O)[O-])cc1[N+](=O)[O-]")
"no"
>>> label_class("Oc1cccc(-c2cccc(O)n2)n1")
"no"
>>> label_class("c1ccc([P+](c2ccccc2)(c2ccccc2)c2ccc(-c3ccc([P+](c4ccccc4)(c4ccccc4)c4ccccc4)cc3)cc2)cc1")
"no"
>>> label_class("C/C=C(/COC(C)=O)C(=O)OC1C=C(C=O)C(C)(C)C=C1C (configuration not stated)")
"no"
>>> label_class("O=c1c(-c2ccc3c(c2)OCO3)coc2c3c(ccc12)OCO3")
"no"
>>> label_class("Cc1cc(O)c2c(c1O)C(=O)C13C(=C(O)C4C(O)C1C1C(O)C3C(O)=C3C(=O)c5c(O)cc(C)c(O)c5C(=O)C341)C2=O (configuration not stated)")
"yes"
>>> label_class("CN(C)c1ccc(/C=C2\\C[C@H]3[C@@H]4CCc5cc(OCCN6CCCC6)ccc5[C@H]4CC[C@]3(C)C2=O)cc1")
"no"
>>> label_class("CO[C@H]1C[C@H](O[C@H]2CC[C@]3(C=O)[C@H]4CC[C@]5(C)[C@@H](C6=CC(=O)OC6)CC[C@]5(O)[C@@H]4CC[C@]3(O)C2)O[C@H](C)[C@H]1O[C@@H]1O[C@H](CO)[C@@H](O)[C@H](O)[C@H]1O")
"yes"
>>> label_class("CC(=O)OCC1OC(Oc2cc(C)c(O)cc2C/C=C(\\C)CC/C=C(\\C)CC(=O)CC(C)C)C(O)C(OC(C)=O)C1OC(C)=O (configuration not stated)")
"no"
>>> label_class("C=CCCC(=O)N1CCC(C(=O)OCC)C1=O (configuration not stated)")
"no"
>>> label_class("CN(C)CCn1c(CO)nc2c1c(=O)n(C)c(=O)n2C")
"no"
>>> label_class("c1ccc2nc3c(nc2c1)sc1ccccc13")
"no"
>>> label_class("COc1cc(C2C(C(=O)O)=C(C)Oc3cc4c(cc32)OCO4)cc(OC)c1OC (configuration not stated)")
"no"
>>> label_class("Nc1ncnc2c1nc(Cl)n2C1OC2COP(=O)(O)OC2C1O (configuration not stated)")
"no"
>>> label_class("Cn1cnc(N)c(N=O)c1=O")
"no"
>>> label_class("CN(C)CCOc1cc2c(c3ccccc13)-c1ccccc1C2=O")
"yes"
>>> label_class("O=C(NNC(=S)Nc1ccc(Br)cc1)c1cc(-c2ccccc2)nc2ccccc12")
"no"
>>> label_class("COC1=NN2C(OC)(c3ccccc3)c3c(-c4ccccc4)sc(-c4ccccc4)c3C2(c2ccccc2)S1 (configuration not stated)")
"no"
>>> label_class("CC(C)=CC(=O)C1c2cccc(O)c2C(=O)c2c(O)cc(C)cc21 (configuration not stated)")
"no"
>>> label_class("CC1=C[C@@H](C)C[C@]2(C)CC[C@H](O2)[C@]23CC[C@](C(=O)O)(C[C@H](O2)[C@@H]2O[C@@](C)(CC2=O)[C@@H](O)[C@H]2CC[C@@]4(CCC[C@@H](O4)[C@H](C)C(=O)O[C@H]4C[C@H]([C@]5(O)OCC[C@H](C)[C@@H]5O)O[C@H]4C=C1)O2)O3")
"no"
>>> label_class("CC(C)C1(O)C(c2ccccc2)=C(c2ccccc2)C(c2ccccc2)=C1c1ccccc1")
"no"
>>> label_class("C[C@]12CC[C@@H]3c4cc(Br)c(O)c(Br)c4CC[C@H]3[C@@H]1CCC2=O")
"no"
>>> label_class("O=C(O)CNC(=O)c1ccc([As](=O)(O)O)cc1")
"no"
>>> label_class("COc1cc(C2c3cc4c(cc3OC(NNC(N)=S)C2C)OCO4)cc(OC)c1OC (configuration not stated)")
"yes"
>>> label_class("CC(C)C(C=O)C(O)(C(F)(F)F)C(F)(F)F (configuration not stated)")
"no"
>>> label_class("Cc1nc2ccccc2c(=O)n1NC(=S)Nc1ccccc1")
"no"
>>> label_class("Cc1cc2c(c(C(N)=O)c1C)-c1ccccc1C2=O")
"no"
>>> label_class("O=C(CC/C=C(/CS(=O)(=O)c1ccccc1)S(=O)(=O)c1ccccc1)c1ccccc1")
"no"
>>> label_class("CCOC(=O)C(C)(NC(=O)c1ccc(NCc2ccc3nc(NC(=O)c4ccccc4)nc(NC(=O)c4ccccc4)c3c2)cc1)C(=O)OCC")
"no"
>>> label_class("COc1ccccc1N1C(=O)/C(=C/c2ccc(N(CCC#N)CCC#N)cc2C)N=C1c1cc([N+](=O)[O-])ccc1Cl")
"no"
>>> label_class("CC(=O)/C(=C/NC(=S)c1ccncc1)C(=O)Nc1ccccc1C")
"no"
